- ASSAY_INFO: in vivo
- Set-up: species or system Sprague-Dawley (SD) rats
- CONDITION: Sprague-Dawley, rat, plasma, po, 60 mg·kg^−1
METRIC: concentration at 0.25 h (ng/mL)
// units = ng/mL; emit number, no label

Quote concentration at 0.25 h reported for CC(C)=CCC[C@](C)(O[C@@H]1O[C@H](CO)[C@@H](O)[C@H](O)[C@H]1O)[C@H]1CC[C@]2(C)[C@@H]1[C@H](O)C[C@@H]1[C@@]3(C)CC[C@H](O[C@@H]4O[C@H](CO)[C@@H](O)[C@H](O)[C@H]4O[C@@H]4O[C@H](CO)[C@@H](O)[C@H](O)[C@H]4O)C(C)(C)[C@@H]3CC[C@]12C [GRd, ginsenoside Rd] please.
9
